// values below are reported Vd
test: Volume of distribution at steady state in Beagle dog at 1 mg/kg, iv and 2 mg/kg, po; type: ADME, organism-based, Canis lupus familiaris; details: in vivo, read-out: Vdss
Write it as a number; the unit L/kg goes unstated.

Consider the following illustrative entries.
[[record]]
compound = "CCn1c(=O)oc2ccc(-c3ccc(C[C@@H](C#N)NC(=O)[C@@H]4CNCCCO4)cc3)cc21"
observed_property = "Vd"
numeric_readout = 9

[[record]]
compound = "N#Cc1ccc(-c2ccc(C[C@@H](C#N)NC(=O)[C@@H]3CNCCCO3)cc2)cc1"
observed_property = "Vd"
numeric_readout = 3.9


If you can, please state the reported Vd value of Cn1c(=O)oc2ccc(-c3ccc(C[C@@H](C#N)NC(=O)[C@@H]4CNCCCO4)cc3)cc21 [BRENSOCATIB] .
11
